These measurements were taken from patent US9840513B2.

Molecular target: F508delCFTR cell surface expression in CFBE41o-F508delCFTR-HRP cells (Homo sapiens, UniProt P13569, DEL508-508)
Construct: fused on or other part: Horseradish peroxidase (HRP) reporter inserted in the fourth exofacial (extracellular) loop of CFTR; expression is doxycycline-inducible
Sequence (P13569 with tags, fused parts or gaps DEL508-508 limits assumed): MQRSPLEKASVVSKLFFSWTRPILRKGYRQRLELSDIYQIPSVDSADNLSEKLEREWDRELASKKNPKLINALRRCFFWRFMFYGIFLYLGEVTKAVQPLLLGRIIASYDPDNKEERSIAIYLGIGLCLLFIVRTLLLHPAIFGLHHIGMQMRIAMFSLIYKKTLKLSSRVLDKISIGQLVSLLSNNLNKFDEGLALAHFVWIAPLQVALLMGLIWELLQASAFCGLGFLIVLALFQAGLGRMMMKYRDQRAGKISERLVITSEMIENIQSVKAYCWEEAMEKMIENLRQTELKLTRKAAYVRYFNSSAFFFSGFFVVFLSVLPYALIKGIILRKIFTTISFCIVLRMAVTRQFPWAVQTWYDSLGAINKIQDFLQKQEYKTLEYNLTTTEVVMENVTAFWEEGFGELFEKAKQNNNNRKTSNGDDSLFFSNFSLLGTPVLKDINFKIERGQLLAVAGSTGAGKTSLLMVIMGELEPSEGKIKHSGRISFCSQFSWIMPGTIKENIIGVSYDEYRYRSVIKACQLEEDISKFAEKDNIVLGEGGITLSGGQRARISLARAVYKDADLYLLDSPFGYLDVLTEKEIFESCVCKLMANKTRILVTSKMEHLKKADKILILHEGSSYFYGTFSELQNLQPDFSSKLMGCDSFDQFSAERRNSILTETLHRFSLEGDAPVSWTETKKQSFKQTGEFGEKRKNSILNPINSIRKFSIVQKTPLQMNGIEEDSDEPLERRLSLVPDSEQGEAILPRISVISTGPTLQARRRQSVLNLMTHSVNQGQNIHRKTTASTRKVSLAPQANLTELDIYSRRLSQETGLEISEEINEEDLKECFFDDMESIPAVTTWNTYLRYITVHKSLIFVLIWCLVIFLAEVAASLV
Sequence (P13569 919-1480 limits assumed, stated change not applied): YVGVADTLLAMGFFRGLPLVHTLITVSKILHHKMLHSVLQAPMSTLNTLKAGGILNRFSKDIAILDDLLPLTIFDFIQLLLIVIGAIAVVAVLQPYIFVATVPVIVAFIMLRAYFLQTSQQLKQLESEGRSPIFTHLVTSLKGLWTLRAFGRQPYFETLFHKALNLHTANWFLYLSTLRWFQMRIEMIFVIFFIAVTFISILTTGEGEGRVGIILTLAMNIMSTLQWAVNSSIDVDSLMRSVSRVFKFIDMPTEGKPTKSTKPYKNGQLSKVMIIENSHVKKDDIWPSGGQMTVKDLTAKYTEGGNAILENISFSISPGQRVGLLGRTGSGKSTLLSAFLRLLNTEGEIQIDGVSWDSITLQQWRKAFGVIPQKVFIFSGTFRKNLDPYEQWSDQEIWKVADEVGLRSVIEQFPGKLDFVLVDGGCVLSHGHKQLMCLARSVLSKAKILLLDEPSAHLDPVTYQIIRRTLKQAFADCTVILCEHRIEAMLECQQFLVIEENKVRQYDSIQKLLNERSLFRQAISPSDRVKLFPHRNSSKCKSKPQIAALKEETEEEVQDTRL
Assay: Cell Surface Expression-Horse Radish Peroxidase (CSE-HRP) Assay
Conditions: CFBE41o-F508delCFTR-HRP cells, 18-24 hours at 33° C., 8-point curve, highest concentration 20 μM
measure: EC50 (nM)
Give bare numbers, in nM.

Use the examples below as a reference point.
1) C[C@]1(C(=O)N[C@@H]2C[C@H](C3(C(=O)N4C[C@H](O)[C@@H](O)C4)CC3)Oc3cc(OC(F)(F)F)ccc32)COc2cc3c(cc21)OC(F)(F)O3 : 1860
2) C[C@]1(C(=O)Nc2cccc(N3CC[C@@H](O)C3)n2)COc2cc3c(cc21)OC(F)(F)O3 : 210
3) COc1ccc2c(c1)O[C@@H](c1ccc(OCc3ccccc3)nn1)C[C@H]2NC(=O)[C@@]1(C)COc2cc3c(cc21)OC(F)(F)O3 (single isomer, unassigned) : 120
4) C[C@@]1(C(=O)N[C@@H]2C[C@H](c3ccc(C(=O)O)cc3)Oc3ccccc32)CCc2cc3c(cc21)OC(F)(F)O3 (single isomer, unassigned) : 420
5) C[C@]1(C(=O)N[C@@H]2C[C@H](c3ccc(CO)cn3)Oc3cc(OC(F)(F)F)ccc32)COc2cc3c(cc21)OC(F)(F)O3 : 90
6) C[C@]1(C(=O)N[C@@H]2C[C@H]([C@H]3CC[C@H](C(=O)N4CCN(CCO)CC4)CC3)Oc3cc(OC(F)(F)F)ccc32)COc2cc3c(cc21)OC(F)(F)O3 : 110
7) Cc1c(C(=O)O)cccc1-c1cccc(NC(=O)[C@@]2(C)COc3cc4c(cc32)OC(F)(F)O4)n1 : 1940
8) CC(C)(CO)c1cc2cc(NC(=O)[C@@]3(C)COc4cc5c(cc43)OC(F)(F)O5)c(F)cc2n1C[C@@H](O)CO : 390
9) C[C@]1(C(=O)Nc2cc(Br)cn(C[C@@H](O)CO)c2=O)COc2cc3c(cc21)OC(F)(F)O3 : 1140
10) Cc1ccc(NC(=O)[C@@]2(C)COc3cc4c(cc32)OC(F)(F)O4)nc1-c1ccc(C(=O)NS(C)(=O)=O)cc1 : 2500

State the recorded EC50 for every item in the following list.
1. COc1ccc2c(c1)O[C@@H](c1ccc(C(=O)NCC(O)CO)cn1)C[C@H]2NC(=O)[C@@]1(C)COc2cc3c(cc21)OC(F)(F)O3 (some centres unmarked)
2. COc1ccc2c(c1)O[C@@H](c1ccc(C(=O)NC(C)CC(N)=O)cn1)C[C@H]2NC(=O)[C@@]1(C)COc2cc3c(cc21)OC(F)(F)O3 (some centres unmarked)

Response given:
70
110

State the recorded EC50 for every item in the following list.
1. COc1ccc2c(c1)O[C@@H](c1cccc(C(=O)O)c1)C[C@H]2NC(=O)[C@]1(C)CCc2cc3c(cc21)OC(F)(F)O3 (single isomer, unassigned)
2. CC(C)(CO)c1cc2cc(NC(=O)[C@]3(C)COc4cc5c(cc43)OC(F)(F)O5)c(F)cc2n1C[C@@H](O)CO

Response given:
1: 880; 2: 7650

State the recorded EC50 for every item in the following list.
1. C[C@]1(C(=O)N[C@@H]2C[C@H]([C@H]3CC[C@H](C(=O)Nc4ccccc4O)CC3)Oc3cc(OC(F)(F)F)ccc32)COc2cc3c(cc21)OC(F)(F)O3
2. COc1ccc2c(c1)O[C@@H](c1ccc(C(=O)N(C)CCO)cn1)C[C@H]2NC(=O)[C@@]1(C)COc2cc3c(cc21)OC(F)(F)O3

Response given:
1: 90; 2: 40
